systemName: T1, Human CD19-his protein (human, UniProt P15391 20-291)
T1 construct: bought protein; also called recombinant human CD19-His; CD19 full-length protein; not shown: His tag
T1 sequence (looked up): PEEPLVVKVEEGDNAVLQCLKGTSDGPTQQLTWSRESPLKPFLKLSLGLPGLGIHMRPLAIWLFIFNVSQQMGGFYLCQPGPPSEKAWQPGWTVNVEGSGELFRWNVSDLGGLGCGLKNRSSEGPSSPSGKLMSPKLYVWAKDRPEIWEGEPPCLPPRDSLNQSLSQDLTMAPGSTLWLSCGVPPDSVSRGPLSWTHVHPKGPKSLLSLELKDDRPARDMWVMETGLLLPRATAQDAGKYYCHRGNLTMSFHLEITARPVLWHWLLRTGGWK
methodDescription: SPR Biacore, Ab captured on Protein A, CD19-His analyte
parameter: kon (M⁻¹ s⁻¹)
Please reply with the bare figure in M⁻¹ s⁻¹ and do not write the unit itself.

Data point: F3.5.1 (antibody, human IgG1, V domains shown, human-murine chimeric antibody, human IgG1 constant) VH: QAQLQQSGPELVKPGASVKISCKASGYAFSGSWMNWVQQRPGKGLEWIGRIYPGDGDTYYNGKFKDKAILTADKSSSTAYMQLSSLTSEDSAVYFCAQLRYRYVMDYWGQGTSVTVSS VL: DIVLTQSPASLAVSLGQRATISCRASESVSIHGSHLMHWYQQKPGQPPRLLIYAASNLESGVPARFSGSGSETDFTLNIHPVEEEDAATYFCQQGIKDPYTFGGGTKLEIK ; kon = 156000

kon for F4.41.1 (antibody, human IgG1, V domains shown, human-murine chimeric antibody, human IgG1 constant) VH: QVQLQQSGAELVRPGTSVKVSCKASGYAFTNYLIEWVKQRPGQGLEWIGVINPGSGDTLYNEKFKGKATLTADKSSTTAYMQLSGLTSDVSAIYFCARSPPITTIVADYFDYWGQGTTLTVSS VL: DIQMTQTTSSLSASLGDRVTISCRASQDISNYLNWYQQKPDGTVKLLIYYTSRLHSGVPSRFSGSGSGADYSLTISNLEQEDIATYFCQQGKTLPYTFGGGTKLEIK is 179000

// F4.35.5 (antibody, human IgG1, V domains shown, human-murine chimeric antibody, human IgG1 constant) VH: EIQLQQSGPELVKPGASVKVSCKASGYAFTSYNMYWVKQSHGKSLEWIGYIDPYNGDTRYNQKFKGKATLTVDKSSSTAYMHLNSLTSEDSAVYYCTRSGTGRDYWGQGTTLTVSS VL: QIVLTQSPAIMSASPGEKVTMTCSASSSISYMFWFQQKPGSSPRLLIYDTSSLASGVPVRFSGSGSGTSYTLTISRMEAEDAATYYCQQWSNYPYTFGGGTKLEMK : kon value = 229000
